Data origin, for the record: patent US20140341917A1

# TEST TARGET: T1, human PD-L1 (human, UniProt Q9NZQ7 19-238, limits assumed)
# T1 construct: Protein used in the Biacore assays of 3.1
# T1 sequence (Q9NZQ7 19-238 limits assumed): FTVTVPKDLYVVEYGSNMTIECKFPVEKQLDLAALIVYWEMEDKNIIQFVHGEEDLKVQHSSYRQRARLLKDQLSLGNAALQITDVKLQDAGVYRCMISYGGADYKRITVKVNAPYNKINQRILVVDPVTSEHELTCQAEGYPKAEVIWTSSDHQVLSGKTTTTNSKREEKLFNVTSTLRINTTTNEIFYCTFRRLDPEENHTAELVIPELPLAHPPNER
# ASSAY NOTES: Biacore; relative to A09-188-1
Classification field: 1 = Relative KD at or over 0.08; 0 = Relative KD under 0.08.

| BINDER | LABEL CLASS |
| --- | --- |
| A09-223-1 (antibody, human IgG1, lambda, V domains shown, also called VH-M31S, M35F, S63T, I93V) VH: EVQLLESGGGLVQPGGSLRLSCAASGFTFSSYMMFWVRQAPGKGLEWVSSIYPSGGITFYADTVKGRFTISRDNSKNTLYLQMNSLRAEDTAVYYCARIKLGTVTTVDYWGQGTLVTVSS VL: QSALTQPASVSGSPGQSITISCTGTSSDVGAYNYVSWYQQHPGKAPKLMIYDVSNRPSGVSNRFSGSKSGNTASLTISGLQAEDEADYYCSSYTSSSTRVFGTGTKVTVLG | 1 |
| A09-240-2 (antibody, human IgG1, lambda, V domains shown, also called VL-A31G; VH-M33I, M35F, S63T, I93V) VH: EVQLLESGGGLVQPGGSLRLSCAASGFTFSMYIMFWVRQAPGKGLEWVSSIYPSGGITFYADTVKGRFTISRDNSKNTLYLQMNSLRAEDTAVYYCARIKLGTVTTVDYWGQGTLVTVSS VL: QSALTQPASVSGSPGQSITISCTGTSSDVGGYNYVSWYQQHPGKAPKLMIYDVSNRPSGVSNRFSGSKSGNTASLTISGLQAEDEADYYCSSYTSSSTRVFGTGTKVTVLG | 0 |
| A09-188-1 (antibody, human IgG1, lambda, V domains shown, Parent antibody, lambda light chain, expressed as IgG) VH: EVQLLESGGGLVQPGGSLRLSCAASGFTFSMYMMMWVRQAPGKGLEWVSSIYPSGGITFYADSVKGRFTISRDNSKNTLYLQMNSLRAEDTAIYYCARIKLGTVTTVDYWGQGTLVTVSS VL: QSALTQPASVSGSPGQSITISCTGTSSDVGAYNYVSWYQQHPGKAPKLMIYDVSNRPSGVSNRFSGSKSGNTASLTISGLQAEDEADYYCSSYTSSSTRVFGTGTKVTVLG | 1 |
| A09-204-1 (antibody, human IgG1, lambda, V domains shown, positions counted from the N-terminus of the chain; also called VH-M31I, M33I, M35F, S63T, I93V) VH: EVQLLESGGGLVQPGGSLRLSCAASGFTFSIYIMFWVRQAPGKGLEWVSSIYPSGGITFYADTVKGRFTISRDNSKNTLYLQMNSLRAEDTAVYYCARIKLGTVTTVDYWGQGTLVTVSS VL: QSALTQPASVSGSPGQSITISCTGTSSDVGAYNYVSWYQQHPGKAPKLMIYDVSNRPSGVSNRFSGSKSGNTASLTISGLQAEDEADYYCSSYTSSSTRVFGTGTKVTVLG | 0 |
| A09-241-2 (antibody, human IgG1, lambda, V domains shown, also called VL-A31G; VH-M31I, M33I, S63T, I93V) VH: EVQLLESGGGLVQPGGSLRLSCAASGFTFSIYIMMWVRQAPGKGLEWVSSIYPSGGITFYADTVKGRFTISRDNSKNTLYLQMNSLRAEDTAVYYCARIKLGTVTTVDYWGQGTLVTVSS VL: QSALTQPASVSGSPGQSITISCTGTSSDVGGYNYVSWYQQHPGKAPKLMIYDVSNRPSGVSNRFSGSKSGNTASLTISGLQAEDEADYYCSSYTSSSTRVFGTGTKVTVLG | 0 |
| A09-202-1 (antibody, human IgG1, lambda, V domains shown, also called VL-A31G) VH: EVQLLESGGGLVQPGGSLRLSCAASGFTFSMYMMMWVRQAPGKGLEWVSSIYPSGGITFYADSVKGRFTISRDNSKNTLYLQMNSLRAEDTAIYYCARIKLGTVTTVDYWGQGTLVTVSS VL: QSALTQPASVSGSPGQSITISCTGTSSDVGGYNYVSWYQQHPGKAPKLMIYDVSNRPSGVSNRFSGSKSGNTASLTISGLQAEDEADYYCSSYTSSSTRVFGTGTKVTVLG | 1 |
| A09-247-2 (antibody, human IgG1, lambda, V domains shown, also called VL-A31G; VH-M31S, M33L, S63T, I93V) VH: EVQLLESGGGLVQPGGSLRLSCAASGFTFSSYLMMWVRQAPGKGLEWVSSIYPSGGITFYADTVKGRFTISRDNSKNTLYLQMNSLRAEDTAVYYCARIKLGTVTTVDYWGQGTLVTVSS VL: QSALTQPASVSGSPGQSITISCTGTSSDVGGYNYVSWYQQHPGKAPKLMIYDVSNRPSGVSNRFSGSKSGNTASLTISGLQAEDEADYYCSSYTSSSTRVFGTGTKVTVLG | 1 |
| A09-248-2 (antibody, human IgG1, lambda, V domains shown, also called VL-A31G; VH-M31I, M33I, M35F, S63T, I93V) VH: EVQLLESGGGLVQPGGSLRLSCAASGFTFSIYIMFWVRQAPGKGLEWVSSIYPSGGITFYADTVKGRFTISRDNSKNTLYLQMNSLRAEDTAVYYCARIKLGTVTTVDYWGQGTLVTVSS VL: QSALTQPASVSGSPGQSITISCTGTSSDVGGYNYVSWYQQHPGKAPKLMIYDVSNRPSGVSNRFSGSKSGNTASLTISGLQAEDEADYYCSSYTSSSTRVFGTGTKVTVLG | 0 |
| A09-215-1 (antibody, human IgG1, lambda, V domains shown, 193V read as I93V; also called VH-M33L, M35F, S63T, 193V) VH: EVQLLESGGGLVQPGGSLRLSCAASGFTFSMYLMFWVRQAPGKGLEWVSSIYPSGGITFYADTVKGRFTISRDNSKNTLYLQMNSLRAEDTAVYYCARIKLGTVTTVDYWGQGTLVTVSS VL: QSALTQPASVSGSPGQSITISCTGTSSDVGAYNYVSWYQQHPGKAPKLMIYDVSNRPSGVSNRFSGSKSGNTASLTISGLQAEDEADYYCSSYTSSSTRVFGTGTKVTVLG | 1 |
